Entries with reported AC50 on Melanocortin receptor 3 (Homo sapiens, UniProt P41968)
Sequence (P41968 whole entry): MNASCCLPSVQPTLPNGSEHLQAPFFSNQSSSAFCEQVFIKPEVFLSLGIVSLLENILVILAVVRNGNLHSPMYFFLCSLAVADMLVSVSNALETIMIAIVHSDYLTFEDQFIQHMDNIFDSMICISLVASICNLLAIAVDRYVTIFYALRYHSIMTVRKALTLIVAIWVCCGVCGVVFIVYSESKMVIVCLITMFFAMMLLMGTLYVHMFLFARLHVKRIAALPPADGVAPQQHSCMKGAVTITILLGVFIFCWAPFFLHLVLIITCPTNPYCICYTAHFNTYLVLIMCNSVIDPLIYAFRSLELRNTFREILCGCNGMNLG

compound="CC(C[N+](C)(C)C)OC(N)=O (stereo not given)" experimental_readout=AC50 test_value="> 10 µM"
compound=O=C(O)C[C@H](O)C[C@H](O)/C=C/c1c(C2CC2)nc2ccccc2c1-c1ccc(F)cc1 experimental_readout=AC50 test_value="> 30 µM"
compound=C[C@@H]1O[C@@H](O[C@@H]2C=C3CC[C@@H]4[C@H](CC[C@]5(C)[C@@H](c6ccc(=O)oc6)CC[C@]45O)[C@@]3(C)CC2)[C@H](O)[C@H](O)[C@H]1O experimental_readout=AC50 test_value="> 30 µM"
compound="Cn1nnc2c(C(N)=O)ncn2c1=O [TEMOZOLOMIDE]" experimental_readout=AC50 test_value="> 30 µM"
compound=CC[C@H]1[C@@H](O)[C@@H]2[C@H](CC[C@]3(C)[C@@H]([C@H](C)CCC(=O)O)CC[C@@H]23)[C@@]2(C)CC[C@@H](O)C[C@@H]12 experimental_readout=AC50 test_value="> 30 µM"

"CCc1c(Cl)c(O)c(Cl)c(O)c1C(=O)O[C@H]1[C@H](O)[C@H](OC)[C@H](OC/C2=C\C=C\C[C@H](O)/C(C)=C/[C@H](CC)[C@@H](O[C@@H]3OC(C)(C)[C@@H](OC(=O)C(C)C)[C@H](O)[C@@H]3O)/C(C)=C/C(C)=C/C[C@@H]([C@@H](C)O)OC2=O)O[C@@H]1C" on Melanocortin receptor 3 (Homo sapiens, UniProt P41968) gives AC50 = > 30 µM

"Cc1cn([C@H]2C[C@H](N=[N+]=[N-])[C@@H](CO)O2)c(=O)[nH]c1=O" on Melanocortin receptor 3 (Homo sapiens, UniProt P41968) gives AC50 = > 30 µM

"C#C[C@]1(O)CC[C@H]2[C@@H]3CCC4=Cc5oncc5C[C@]4(C)[C@H]3CC[C@@]21C" on Melanocortin receptor 3 (Homo sapiens, UniProt P41968) gives AC50 = > 10 µM

Numbers sourced from ChEMBL document CHEMBL5291721.
